# system: serotoninergic 5-HT6 receptor (Homo sapiens, UniProt P50406)
# Sequence (P50406 whole entry): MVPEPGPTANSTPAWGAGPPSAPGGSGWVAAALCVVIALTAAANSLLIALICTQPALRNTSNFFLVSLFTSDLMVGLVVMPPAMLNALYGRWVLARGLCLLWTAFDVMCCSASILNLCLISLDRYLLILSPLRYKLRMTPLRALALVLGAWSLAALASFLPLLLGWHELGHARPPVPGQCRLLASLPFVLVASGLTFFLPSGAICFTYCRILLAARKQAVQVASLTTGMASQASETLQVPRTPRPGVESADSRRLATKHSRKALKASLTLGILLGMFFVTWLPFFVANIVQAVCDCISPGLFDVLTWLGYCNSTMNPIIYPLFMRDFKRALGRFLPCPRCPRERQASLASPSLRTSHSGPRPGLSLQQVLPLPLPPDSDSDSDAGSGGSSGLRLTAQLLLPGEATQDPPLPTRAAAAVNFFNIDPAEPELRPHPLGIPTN
# test method notes: Binding assay 5-HT6 (h), [3H]LSD, CHO cells
# Set-up: expressed in transfected cells; host or cells: CHO cells
# measurement conditions: read-out: 5-HT6
quantity kind: inhibition at 1 µM (%)
Form entry: value (%) — number only.

Consider the worked cases shown below.
smiles_input=O=S(=O)(NCCCCN1CCC(c2noc3cc(F)ccc23)CC1)c1ccc2cc(Cl)ccc2c1 system="serotoninergic 5-HT6 receptor (Homo sapiens, UniProt P50406)" quantity_kind="inhibition at 1 µM" unit_descriptor=% value=98
smiles_input=COc1cccc(S(=O)(=O)NCCCN2CCC(c3noc4cc(F)ccc34)CC2)c1 system="serotoninergic 5-HT6 receptor (Homo sapiens, UniProt P50406)" quantity_kind="inhibition at 1 µM" unit_descriptor=% value=95
smiles_input=Cc1c(S(=O)(=O)NCCCCN2CCC(c3noc4cc(F)ccc34)CC2)sc2ccc(Cl)cc12 system="serotoninergic 5-HT6 receptor (Homo sapiens, UniProt P50406)" quantity_kind="inhibition at 1 µM" unit_descriptor=% value=98
smiles_input=O=S(=O)(NCCCCN1CCN(c2noc3ccccc23)CC1)c1ccc2cn[nH]c2c1 system="serotoninergic 5-HT6 receptor (Homo sapiens, UniProt P50406)" quantity_kind="inhibition at 1 µM" unit_descriptor=% value=83
smiles_input=O=S(=O)(NCCCN1CCN(c2nsc3ccccc23)CC1)c1ccc(F)c(Cl)c1 system="serotoninergic 5-HT6 receptor (Homo sapiens, UniProt P50406)" quantity_kind="inhibition at 1 µM" unit_descriptor=% value=99
smiles_input=Cc1cccc(S(=O)(=O)NCCCCN2CCC(c3noc4cc(F)ccc34)CC2)c1 system="serotoninergic 5-HT6 receptor (Homo sapiens, UniProt P50406)" quantity_kind="inhibition at 1 µM" unit_descriptor=% value=69

Exam item: What value of inhibition at 1 µM has been recorded for this entry: "Cc1[nH]c2ccc(Cl)cc2c1C1=CCN(CCNS(=O)(=O)c2cccc(F)c2)CC1"
Marked response: 96

Exam item: # iterate: "O=c1[nH]c2cccc(N3CCN(CCCCNS(=O)(=O)c4cccc5ccccc45)CC3)c2[nH]1"
Marked response: 5
